STUDY SYSTEM: human GLP-1R (Homo sapiens, UniProt P43220)
Construct: host or cells: COS-7
Sequence (P43220 24-463): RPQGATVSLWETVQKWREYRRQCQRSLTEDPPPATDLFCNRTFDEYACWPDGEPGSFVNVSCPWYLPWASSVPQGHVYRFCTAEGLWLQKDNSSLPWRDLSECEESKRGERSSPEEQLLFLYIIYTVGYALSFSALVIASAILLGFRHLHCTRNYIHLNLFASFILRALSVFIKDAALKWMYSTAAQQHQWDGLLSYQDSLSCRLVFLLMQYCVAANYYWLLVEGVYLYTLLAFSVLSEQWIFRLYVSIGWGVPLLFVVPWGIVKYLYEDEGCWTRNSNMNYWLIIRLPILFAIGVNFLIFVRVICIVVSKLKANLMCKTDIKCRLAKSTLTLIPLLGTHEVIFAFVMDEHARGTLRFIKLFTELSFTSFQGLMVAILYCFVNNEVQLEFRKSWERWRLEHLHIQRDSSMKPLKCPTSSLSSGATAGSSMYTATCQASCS
METHOD NOTES: cAMP assay (HitHunter) in transiently transfected COS-7 cells expressing human GLP-1R
Type: cell-based
*1 amine or outer side, *2 acyl side, *3 side chain or, on linkers, in order; H or OH if unused. Where no end group is shown, it is not given here. Side-chain parts run from the residue outwards. The star is where a group is joined. C18 diacid = O=C(O)CCCCCCCCCCCCCCCCC(=O)*; γGlu = O=C(O)[C@H](CCC(=O)[*:2])N[*:1]; AEEA = NCCOCCOCC(=O)O
RESULT TYPE: EC50 (nM)
Numeric only. Scale: nM

Report EC50 for HADGTFTSDYSTILDKK([AEEA-AEEA-γGlu-C18 diacid])AARDFINWLIQTKGKKNDWKHNITQ [Compound 23] tested on human GLP-1R (Homo sapiens, UniProt P43220).
0.05
